Origin of the recorded values: patent EP2881391A1

- EXPERIMENTAL_SYSTEM: human GnRH receptor (Homo sapiens)
- Construct: line established by Prof; Thomas Gudermann
- Sequence (P30968 whole entry): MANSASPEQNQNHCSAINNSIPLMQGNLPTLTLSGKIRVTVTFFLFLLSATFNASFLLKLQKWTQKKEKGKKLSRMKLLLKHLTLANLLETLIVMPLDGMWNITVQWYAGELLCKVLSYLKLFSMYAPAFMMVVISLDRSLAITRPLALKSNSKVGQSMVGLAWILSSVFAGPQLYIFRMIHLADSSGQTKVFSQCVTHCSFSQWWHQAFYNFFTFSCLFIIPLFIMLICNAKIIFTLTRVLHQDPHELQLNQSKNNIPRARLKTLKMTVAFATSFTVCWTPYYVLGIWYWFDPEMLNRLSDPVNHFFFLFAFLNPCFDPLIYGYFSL
- PROTOCOL_NOTES: IP-One HTRF assay (inhibition of GnRH-R activation by buserelin)
- EXPERIMENTAL_SETUP: IP-One HTRF assay with buserelin (at EC80) stimulation; CHO cells stably expressing human GnRH receptor; tested 20 µM to 1 nM; read-out: Potency IC50
ASSAY_READOUT: IC50

Recorded results for 6 molecules are shown here.
Need IC50 of CC(C)=CCC1N(S(=O)(=O)c2ccc(F)cc2)c2ccc(C(=O)Nc3cncc(C)c3)cc2C12CCC(O)(C(F)(F)F)CC2 (stereo not drawn) , thanks.
1.84 µM

Okay, and COC(=O)c1cccc(NC(=O)c2ccc3c(c2)C2(CCC(O)(C(F)(F)F)CC2)C(C2CC2)N3S(=O)(=O)c2ccc(F)cc2)c1 (racemic) [Example 30] ?
0.227 µM

Please give the result for CC(C)=CCC1N(S(=O)(=O)c2ccc(F)cc2)c2ccc(C(=O)Nc3cccc(S(C)(=O)=O)c3)cc2C12CCC(O)(C(F)(F)F)CC2 (stereo not drawn) too.
1.28 µM

Try the molecule COc1cccc(S(=O)(=O)N2c3ccc(C(=O)Nc4ncco4)cc3C3(CCC(O)(C(F)(F)F)CC3)C2C2CC2)c1 (stereo not drawn)
1.49 µM

Follow-up item: COC(=O)c1cccc(NC(=O)c2ccc3c(c2)C2(CCC(O)(C(F)(F)F)CC2)C(C2CC2)N3S(=O)(=O)c2ccc(F)cc2)c1 (single isomer, unassigned) [Example 30-1]
0.142 µM

Query O=C(O)c1cccc(S(=O)(=O)N2c3ccc(C(=O)NCc4ncc(C(F)(F)F)cc4F)cc3C3(CCC(O)(C(F)(F)F)CC3)C2C2CC2)c1 (stereo not drawn) next
4.3 µM

Continuing:
Which measured IC50 value corresponds to O=C(NCc1ncccc1C(F)(F)F)c1ccc2c(c1)C1(CCC(O)(C(F)(F)F)CC1)C(C1CC1)N2S(=O)(=O)c1cccc(C(=O)N2CCC2)c1 (single isomer, unassigned) [Example 66-2] ?
0.612 µM

Again, but for O=C(Nc1cc[nH]n1)c1ccc2c(c1)C1(CCC(O)(C(F)(F)F)CC1)C(C1CC1)N2S(=O)(=O)c1ccc(F)cc1 (stereo not drawn)
0.716 µM

And what about the molecule O=C(Nc1cccc(C(F)(F)F)c1)c1ccc2c(c1)C1(CCC(O)(C(F)(F)F)CC1)C(C1CC1)N2S(=O)(=O)c1ccc(F)cc1 (stereo not drawn) ?
2.32 µM

Would you kindly repeat that for O=C(NCc1ccccc1Cl)c1ccc2c(c1)C1(CCC(O)CC1)C(C1CC1)N2S(=O)(=O)c1ccc(F)cc1 (stereo not drawn) ?
0.0607 µM

CC(C)=CCC1N(S(=O)(=O)c2ccc(F)cc2)c2ccc(C(=O)Nc3cccc(S(N)(=O)=O)c3)cc2C12CCC(O)(C(F)(F)F)CC2 (stereo not drawn) ?
1.85 µM

Now this one: O=C(NCc1ncc(C(F)(F)F)cc1Cl)c1ccc2c(c1)C1(CCC(O)CC1)C(C1CC1)N2S(=O)(=O)c1ccc(F)cc1 (stereo not drawn)
0.0521 µM
